Can you tell me inhibition for the items I'm about to list?
# assay.system: 6-phosphogluconate dehydrogenase, decarboxylating (Homo sapiens) (UniProt P52209)
# Sequence (P52209 whole entry, looked up): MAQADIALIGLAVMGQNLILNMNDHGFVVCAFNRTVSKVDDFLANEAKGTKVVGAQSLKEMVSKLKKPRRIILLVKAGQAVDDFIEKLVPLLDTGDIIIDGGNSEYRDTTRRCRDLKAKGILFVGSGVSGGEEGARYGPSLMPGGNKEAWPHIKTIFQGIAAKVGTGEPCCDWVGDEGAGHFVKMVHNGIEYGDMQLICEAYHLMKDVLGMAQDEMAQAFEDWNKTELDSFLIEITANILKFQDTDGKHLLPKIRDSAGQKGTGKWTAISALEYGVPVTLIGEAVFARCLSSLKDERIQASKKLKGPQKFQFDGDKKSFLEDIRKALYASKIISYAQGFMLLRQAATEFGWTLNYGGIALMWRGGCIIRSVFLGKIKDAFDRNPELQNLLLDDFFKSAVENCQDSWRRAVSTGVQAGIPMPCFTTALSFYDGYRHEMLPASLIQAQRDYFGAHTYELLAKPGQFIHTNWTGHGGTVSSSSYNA
# test.summary: 6PGD enzyme inhibitors, primary screen, biochemical, human, recombinant enzyme, NADPH absorbance (AID 1159550)
# applied.conditions: recombinant 6PGD, NADPH absorbance 341 nm; at 10 µM; stronger effect = higher value
Give bare numbers, in %.

Example entries begin here.
NC(=O)c1cnccn1 = -8.25
CC(C)[N+](C)(CCOC(=O)C1c2ccccc2Oc2ccccc21)C(C)C = 6.27
CC(=O)CCCCn1c(=O)c2c(ncn2C)n(C)c1=O = 4.74

Please turn your attention to the following entry.
**Q:** Which inhibition reading was recorded for the compound NCCc1ccc(O)c(O)c1 ?
**A:** -4.79

---

# test.summary: glucagon-like peptide 1 release enhancers, primary assay, NCI-H716 cell line, NPC library (AID 1117341); also: reference of the scale not given here
# applied.conditions: NCI-H716 cells, at 10 µM, stronger effect = higher value
measure: GLP1 secretion stimulation (%)
One number for each entry, in %.

Example entries begin here.
NNC(=O)CP(=O)(c1ccccc1)c1ccccc1 = 1.1
CN(C)CCCN1c2ccccc2Sc2ccc(Cl)cc21 = 15.5
OCCN1CCN(CCCN2c3ccccc3Sc3ccc(C(F)(F)F)cc32)CC1 = 15.4
O=C(OCCN1CCOCC1)c1cccnc1Nc1cccc(C(F)(F)F)c1 = 3.6

Here are 2 compounds. What values of GLP1 secretion stimulation were reported for them?
1. CC(=O)O[C@@H]1C(=O)O[C@@H]2[C@H]1OC(=O)[C@@H]2OC(C)=O
2. O=C(CCCN1CCN(c2ccc(F)cc2)CC1)NC1c2ccccc2CSc2ccccc21 (stereo unspecified)

**A:**
-3.4
3.7

---

# test.summary: stimulators of nuclear beta-catenin in C2C12, primary screen, imaging, WNT3A-conditioned medium, mouse C2C12, NPC library (AID 1117326); also: reference of the scale not given here
# applied.conditions: stimulation, at 2 µM, stronger effect = higher value
measure: nuclear beta-catenin stimulation
# output: number + unit

Example entries begin here.
CCOc1ncc(F)c(=O)[nH]1 = -1.1%
Oc1ccc(Cl)cc1Sc1cc(Cl)ccc1O = 0%
CO[C@@H]1[C@@H](O[C@@H]2O[C@H](C)[C@@H](O[C@H]3C[C@@](C)(O)[C@@H](O)[C@H](C)O3)[C@H](N(C)C)[C@H]2O)[C@@H](CC=O)C[C@@H](C)[C@@H](O[C@@H]2CC[C@H](N(C)C)[C@@H](C)O2)/C=C/C=C/C[C@@H](C)OC(=O)C[C@H]1OC(C)=O = -1.2%
[O-][n+]1ccccc1SSc1cccc[n+]1[O-] = 34%
CCOc1cc(OCC)c(C(=O)CCC(=O)O)cc1OCC = 0.2%

Here are 2 compounds. What values of nuclear beta-catenin stimulation were reported for them?
1. CC(=O)OC[C@H]1O[C@@H](OC(C)=O)[C@H](OC(C)=O)[C@@H]1OC(C)=O
2. O=C1c2ccccc2CCc2ccccc21

**A:**
-1.5%
-0.9%

Here are 5 compounds. What values of nuclear beta-catenin stimulation were reported for them?
1. O=C1[C@@H]2[C@H]3CC[C@H](C3)[C@@H]2C(=O)N1CCCCN1CCN(c2ncccn2)CC1
2. CCN1/C(=C/C=C/c2sc3ccccc3[n+]2CC)Sc2ccccc21
3. Oc1c(Cl)cc(Cl)c2cccnc12
4. Cc1ncc(COP(=O)(O)O)c(C=O)c1O
5. NC(=O)NNc1ccccc1

**A:**
34.2%
7.5%
10.8%
-0.2%
0.7%

Here are 6 compounds. What values of nuclear beta-catenin stimulation were reported for them?
1. Cc1ccc(-c2ccccc2C#N)cc1
2. CCCN(CCC)C(=O)C(CCC(=O)OCCCN1CCN(CCOC(=O)Cc2c(C)n(C(=O)c3ccc(Cl)cc3)c3ccc(OC)cc23)CC1)NC(=O)c1ccccc1 (configuration not stated)
3. Oc1ccccc1-c1nnco1
4. CC1=NS(=O)(=O)c2cc(Cl)ccc2N1
5. CCN(CC)CCCC(C)Nc1c2ccc(Cl)cc2nc2ccc(OC)cc12 (configuration not stated)
6. c1ccc2[nH]ccc2c1

**A:**
["6.2%", "-0.4%", "-0.2%", "2.4%", "1.8%", "3%"]
